Data origin, for the record: the supplement of paper PMC7877785

experiment: self-splicing fitness, log relative to wild type (ln ratio); higher = more splicing; Tetrahymena group I intron in knt gene, E. coli kanamycin selection, DiMSum; sequences stand for … in CUCUCU…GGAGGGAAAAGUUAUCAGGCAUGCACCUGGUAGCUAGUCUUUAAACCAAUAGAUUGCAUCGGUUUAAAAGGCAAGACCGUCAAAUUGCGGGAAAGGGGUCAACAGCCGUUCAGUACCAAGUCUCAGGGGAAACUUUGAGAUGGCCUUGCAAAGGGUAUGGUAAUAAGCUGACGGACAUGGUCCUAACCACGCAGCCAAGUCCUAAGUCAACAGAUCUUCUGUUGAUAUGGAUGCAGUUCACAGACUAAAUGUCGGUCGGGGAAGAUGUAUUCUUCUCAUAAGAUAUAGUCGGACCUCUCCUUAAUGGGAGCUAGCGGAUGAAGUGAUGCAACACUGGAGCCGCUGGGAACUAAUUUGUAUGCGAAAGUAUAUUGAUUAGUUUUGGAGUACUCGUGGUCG; settings: 37 °C;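 note: selection with 25 µg/mL kanamycin versus none on LB agar overnight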
Field: self-splicing fitness (ln). Provide a value for each of the sequences that follow.
Numbers only.

Below: 8 sequences and their reported self-splicing fitness (ln).
| MONOMER SEQUENCE | MEASURED |
| --- | --- |
| AAUGAGCAAUAUUACGGGAG | -3.53 |
| UCGUAGCAAUAUUACGGCAU | -2.53 |
| ACUUAGCAAUAUUACGCUUU | -1.42 |
| UAUCAGCAAUAUUACGCCUA | 0.701 |
| ACGCAGCAAUAUUACGAGUU | -1.6 |
| GUGAAGCAAUAUUACGCAGG | -0.654 |
| GUCAAGCAAUAUUACGCCUA | 0.0798 |
| UGUUAGCAAUAUUACGCCUA | 0.387 |

Report self-splicing fitness (ln) for each item below.
1. GCGGAGCAAUAUUACGGUAA
2. CGGAAGCAAUAUUACGUUUC
3. GUUAAGCAAUAUUACGCUUA
4. AUCUAGCAAUAUUACGCCUA

[reply]
1: -2.7; 2: -2.69; 3: -2.71; 4: -0.389

* * *

For each record, write down the corresponding self-splicing fitness (ln).
assay: self-splicing fitness, log relative to wild type (ln ratio); higher = more splicing; Tetrahymena group I intron in knt gene, E. coli kanamycin selection, DiMSum; sequences stand for … in CUCUCU…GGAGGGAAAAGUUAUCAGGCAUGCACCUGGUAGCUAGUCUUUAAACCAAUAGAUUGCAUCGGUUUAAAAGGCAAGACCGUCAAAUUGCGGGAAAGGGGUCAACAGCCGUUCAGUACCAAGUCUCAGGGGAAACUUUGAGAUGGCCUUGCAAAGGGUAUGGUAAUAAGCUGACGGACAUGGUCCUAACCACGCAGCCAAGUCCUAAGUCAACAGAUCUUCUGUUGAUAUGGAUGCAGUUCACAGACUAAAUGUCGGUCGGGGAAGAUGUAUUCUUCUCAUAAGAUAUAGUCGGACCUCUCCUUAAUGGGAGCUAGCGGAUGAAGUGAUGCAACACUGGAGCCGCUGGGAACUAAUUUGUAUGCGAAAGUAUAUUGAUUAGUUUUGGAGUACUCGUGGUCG; settings: 30 °C
One number for each entry.

Worked set:
| MONOMER SEQUENCE | MEASURED |
| --- | --- |
| CCCAAGCAAUAUUACGCUAC | -4.17 |
| UCGCAGCAAUAUUACGUAGG | -0.74 |
| ACGAAGCAAUAUUACGCACU | -0.656 |
| AUACAGCAAUAUUACGCAGA | -1.49 |
| CUCCAGCAAUAUUACGAACA | -3.95 |

Dear colleague, could you please provide self-splicing fitness (ln) for the sequences listed below?
1. GUAUAGCAAUAUUACGGAAA
2. AUCAAGCAAUAUUACGCCCA
3. GCCCAGCAAUAUUACGCUUA
4. UAUCAGCAAUAUUACGUGGU
5. CGACAGCAAUAUUACGGUGG
6. CAUAAGCAAUAUUACGUUGC

[reply]
1: -2.1; 2: -0.266; 3: -0.569; 4: -3.97; 5: -1.73; 6: -4.07

* * *

experiment: self-splicing fitness, log relative to wild type (ln ratio); higher = more splicing; Tetrahymena group I intron in knt gene, E. coli kanamycin selection, DiMSum; sequences stand for … in CUCUCU…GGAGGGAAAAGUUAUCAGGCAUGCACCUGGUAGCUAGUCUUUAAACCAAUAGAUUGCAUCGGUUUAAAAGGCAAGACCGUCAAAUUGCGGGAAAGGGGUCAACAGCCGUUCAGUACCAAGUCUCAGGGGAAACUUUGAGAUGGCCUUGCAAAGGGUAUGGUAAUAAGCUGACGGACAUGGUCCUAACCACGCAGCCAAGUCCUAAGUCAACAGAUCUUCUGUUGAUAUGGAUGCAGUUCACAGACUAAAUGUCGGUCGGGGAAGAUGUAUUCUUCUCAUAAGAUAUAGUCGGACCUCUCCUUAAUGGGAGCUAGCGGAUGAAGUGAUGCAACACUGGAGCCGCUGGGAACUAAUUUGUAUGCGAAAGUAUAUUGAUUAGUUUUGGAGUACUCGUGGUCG; settings: 30 °C
The threshold is inclusive: self-splicing fitness (ln) of exactly -3 counts as Y; values below receive N.

| MONOMER SEQUENCE | CLASS NAME |
| --- | --- |
| GAAAAGCAAUAUUACGCUGC | N |

[ask] // inclusive: self-splicing fitness (ln) at least -3? input: AUUAAGCAAUAUUACGAGCA
[reply] Y

[ask] Please check the record CGACAGCAAUAUUACGUCGU and state if its self-splicing fitness (ln) is at or above -3.
[reply] N

[ask] Could you verify whether the entry AGUCAGCAAUAUUACGAGAG shows self-splicing fitness (ln) of no less than -3?
[reply] Y

[ask] Can UUUGAGCAAUAUUACGAGGA be said to have self-splicing fitness (ln) at or above -3?
[reply] N

* * *

assay: self-splicing fitness, log relative to wild type (ln ratio); higher = more splicing; Tetrahymena group I intron in knt gene, E. coli kanamycin selection, DiMSum; sequences stand for … in CUCUCU…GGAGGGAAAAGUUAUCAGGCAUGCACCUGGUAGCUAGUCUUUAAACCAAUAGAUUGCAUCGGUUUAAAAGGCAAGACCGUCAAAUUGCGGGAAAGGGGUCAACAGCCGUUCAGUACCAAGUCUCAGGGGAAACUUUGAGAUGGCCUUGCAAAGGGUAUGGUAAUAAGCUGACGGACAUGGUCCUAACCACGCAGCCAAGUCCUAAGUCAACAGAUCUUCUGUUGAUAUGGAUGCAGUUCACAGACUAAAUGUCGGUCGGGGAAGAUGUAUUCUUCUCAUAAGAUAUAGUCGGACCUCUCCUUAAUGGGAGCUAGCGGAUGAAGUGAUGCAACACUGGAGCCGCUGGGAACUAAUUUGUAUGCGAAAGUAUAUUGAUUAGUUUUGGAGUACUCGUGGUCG; settings: 37 °C
METRIC: self-splicing fitness (ln)
Give bare numbers.

Solved cases (4 shown):
| MONOMER SEQUENCE | self-splicing fitness (ln) |
| --- | --- |
| UGGAAGCAAUAUUACGGCCA | -0.244 |
| CAGGAGCAAUAUUACGUAAG | 0.23 |
| CUCUAGCAAUAUUACGUCUC | -1.81 |
| AUCUAGCAAUAUUACGGGCA | -0.862 |

Answer for every listed entry: what is its self-splicing fitness (ln)? The entries follow.
1. UAGGAGCAAUAUUACGAUUA
2. GGCCAGCAAUAUUACGAGAG
3. UUGUAGCAAUAUUACGGCAA
4. CGCGAGCAAUAUUACGAUCU
5. CAGUAGCAAUAUUACGACAC
6. CCGGAGCAAUAUUACGUUUG
7. UAGGAGCAAUAUUACGCGCC

[reply]
[0.31, -2.52, -0.27, -1.66, -1.28, -0.756, -1.03]

Could you tell me self-splicing fitness (ln) for each of these sequences? They are listed below.
1. AGAUAGCAAUAUUACGAUUG
2. UCACAGCAAUAUUACGCUUG
3. ACAUAGCAAUAUUACGGCAG
4. CUCAAGCAAUAUUACGGCGA
5. AACGAGCAAUAUUACGGGUU

[reply]
-1.81
0.263
-0.918
-1.87
-2.05

Your task in this section: give self-splicing fitness (ln) for each listed record.
1. CCUGAGCAAUAUUACGGGAA
2. CGGUAGCAAUAUUACGGCGG
3. AUAUAGCAAUAUUACGAUGC
4. GCAUAGCAAUAUUACGAGAC
5. CGAAAGCAAUAUUACGUCUG
6. GGGGAGCAAUAUUACGCUUG
7. UCUAAGCAAUAUUACGCCCA
8. UAAGAGCAAUAUUACGACUU

[reply]
1. -0.571
2. 0.0118
3. -0.335
4. -1.59
5. 0.364
6. -0.967
7. -0.486
8. -0.528
